# Assay: MTT cell viability assay, fR2 normal breast epithelial cells
# Format: cell-based, human
# Measurement parameters: human, fR2 normal breast epithelial cells, 48 h, read-out: Cytotoxicity IC50, fR2
// classify: if (IC50 at 48 h < 70 µM) met else not met

Some solved entries appear below for comparison.
CC1=C(CO)C(=O)OC(C(C)C2CCC3C4CC5OC56C(O)C5ON=C(c7c(Cl)cccc7Cl)C5C(=O)C6(C)C4CCC23C)C1 (centres unmarked) [W-10a] = not met
CC(=O)OCC1=C(C)C[C@H]([C@@H](C)C2CCC3C4C[C@H]5O[C@]56[C@@H](OC(C)=O)[C@@H]5ON=C(c7ccc(F)cc7)[C@@H]5C(=O)[C@]6(C)C4CC[C@@]32C)OC1=O (some centres unmarked) [W-12b] = not met
CC1=C(CO)C(=O)O[C@@H]([C@@H](C)C2CCC3C4C[C@H]5O[C@]56[C@@H](O)[C@H]5ON=C(c7ccc(Cl)cc7)[C@H]5C(=O)[C@]6(C)C4CC[C@@]32C)C1 (some centres unmarked) = met
COc1ccc(Br)cc1C1=NOC2C1C(=O)C1(C)C3CCC4(C)C(C(C)C5CC(C)=C(CO)C(=O)O5)CCC4C3CC3OC31C2O (centres unmarked) = not met
CC1=C(CO)C(=O)OC(C(C)C2CCC3C4CC5OC56C(O)C5ON=C(c7ccc(Br)cc7)C5C(=O)C6(C)C4CCC23C)C1 (centres unmarked) = not met
CC1=C(CO)C(=O)OC(C(C)C2CCC3C4CC5OC56C(O)C5ON=C(c7ccc(C(F)(F)F)cc7)C5C(=O)C6(C)C4CCC23C)C1 (centres unmarked) [W-11a] = not met
CC1=C(CO)C(=O)OC(C(C)C2CCC3C4CC5OC56C(O)C5ON=C(c7ccc(Cl)cc7Cl)C5C(=O)C6(C)C4CCC23C)C1 (centres unmarked) = not met
CC1=C(CO)C(=O)OC(C(C)C2CCC3C4CC5OC56C(O)C5ON=C(c7ccc([N+](=O)[O-])cc7)C5C(=O)C6(C)C4CCC23C)C1 (centres unmarked) = met

Qu. # TODO verify IC50 at 48 h < 70 µM strictly for this compound: CC1=C(CO)C(=O)O[C@@H]([C@@H](C)C2CCC3C4C[C@H]5O[C@]56[C@@H](O)[C@@H]5ON=C(c7ccc(Cl)cc7)[C@@H]5C(=O)[C@]6(C)C4CC[C@@]32C)C1 (some centres unmarked)
Ans. met

Qu. Subsequent entry: COc1cc(C(F)(F)F)ccc1C1=NOC2C1C(=O)C1(C)C3CCC4(C)C(C(C)C5CC(C)=C(CO)C(=O)O5)CCC4C3CC3OC31C2O (centres unmarked)
Ans. met

Qu. What would you report for CC1=C(CO)C(=O)OC(C(C)C2CCC3C4CC5OC56C(O)C5ON=C(c7ccc(F)cc7)C5C(=O)C6(C)C4CCC23C)C1 (centres unmarked) ?
Ans. not met

====

# Assay: MTT cell viability assay, fR2 normal breast epithelial cells
# Type: cell-based, human
# Measurement parameters: human, fR2 normal breast epithelial cells, 72 h, read-out: Cytotoxicity IC50, fR2
Collected IC50 at 72 h values appear next to each entry.
All answers are understood in µM, so give the number only.

CC1=C(CO)C(=O)O[C@@H]([C@@H](C)[C@H]2CC[C@H]3[C@@H]4C[C@H]5O[C@]56[C@@H](O)C=CC(=O)[C@]6(C)[C@H]4CC[C@]23C)C1 = 38.3

Could you now look at the following compound, please?
Qu. Can you look up the measured IC50 at 72 h of CC1=C(CO)C(=O)OC(C(C)C2CCC3C4CC5OC56C(O)C5ON=C(c7ccc([N+](=O)[O-])cc7)C5C(=O)C6(C)C4CCC23C)C1 (centres unmarked) for me?
Ans. 33.9

====

Attribute: pIC50
# Test system: fR2 cells
# Assay: MTT cell viability assay, fR2 normal breast epithelial cells
# Format: cell-based, human
# Measurement parameters: 48 h, read-out: Cytotoxicity IC50, fR2
Scale: negative log10 of molar concentration, which is what pIC50 denotes.

CC1=C(CO)C(=O)OC(C(C)C2CCC3C4CC5OC56C(O)C5ON=C(c7ccncc7)C5C(=O)C6(C)C4CCC23C)C1 (centres unmarked) [W-5b, pyridenyl-2-isoxazoline withaferin A] = 4.04
CC1=C(CO)C(=O)OC(C(C)C2CCC3C4CC5OC56C(O)C5ON=C(c7ccc([N+](=O)[O-])cc7)C5C(=O)C6(C)C4CCC23C)C1 (centres unmarked) [W-2b, 4-nitrophenyl-2-isoxazoline withaferin A] = 4.45

API: the following record is the query input.
Qu. // lookup pIC50 for CC1=C(CO)C(=O)OC(C(C)C2CCC3C4CC5OC56C(O)C5ON=C(c7ccc(Br)cc7)C5C(=O)C6(C)C4CCC23C)C1 (centres unmarked) [W-3b, 4-bromophenyl-2-isoxazoline withaferin A]
Ans. 4.07

====

# System: MCF7 cells
# Assay: MTT cell viability assay, MCF7
# Type: cell-based, human
# Measurement parameters: 48 h, read-out: Cytotoxicity IC50, MCF7
Attribute measured: log10 of IC50 (log10 of the value in µM)
On a log10 scale: recorded IC50, unit µM.

Below, each entry is followed by its recorded log10 of IC50 result.
CC1=C(CO)C(=O)OC(C(C)C2CCC3C4CC5OC56C(O)C5ON=C(c7ccc(Cl)cc7Cl)C5C(=O)C6(C)C4CCC23C)C1 (stereo not drawn) = 0.36
CC1=C(CO)C(=O)OC(C(C)C2CCC3C4CC5OC56C(O)C5ON=C(c7ccc([N+](=O)[O-])cc7)C5C(=O)C6(C)C4CCC23C)C1 (stereo not drawn) [W-2b, 4-nitrophenyl-2-isoxazoline withaferin A] = -0.15
CC1=C(CO)C(=O)OC(C(C)C2CCC3C4CC5OC56C(O)C5ON=C(c7ccc([N+](=O)[O-])cc7)C5C(=O)C6(C)C4CCC23C)C1 (stereo not drawn) [W-2a, 4-nitrophenyl-2-isoxazoline withaferin A] = 0.76
CC1=C(CO)C(=O)OC(C(C)C2CCC3C4CC5OC56C(O)C5ON=C(c7ccncc7)C5C(=O)C6(C)C4CCC23C)C1 (stereo not drawn) [W-5b, pyridenyl-2-isoxazoline withaferin A] = 0.99
CC1=C(CO)C(=O)OC(C(C)C2CCC3C4CC5OC56C(O)C5ON=C(c7ccncc7)C5C(=O)C6(C)C4CCC23C)C1 (stereo not drawn) [W-5a, pyridenyl-2-isoxazoline withaferin A] = 0.55

With those in mind, consider the next compound.
Qu. Recall the recorded log10 of IC50 for CC1=C(CO)C(=O)OC(C(C)C2CCC3C4CC5OC56C(O)C5ON=C(c7ccc(Br)cc7)C5C(=O)C6(C)C4CCC23C)C1 (stereo not drawn) [W-3a, 4-bromophenyl-2-isoxazoline withaferin A] with MCF7 cells and state it.
Ans. 1.98
